src = patent US20150196612A1

method notes: cytotoxicity (CC50) of steroidal saponins
metric: CC50 (µM)
Respond with the bare value in µM.

CC50 measured on C[C@@H](CC[C@@]1(O)O[C@H]2C[C@H]3[C@@H]4CC[C@@H]5C[C@@H](O[C@@H]6O[C@H](CO)[C@H](O)[C@H](O)[C@H]6O[C@@H]6O[C@H](CO)[C@@H](O)[C@H](O)[C@H]6O)CC[C@]5(C)[C@H]4CC[C@]3(C)[C@H]2[C@@H]1C)CO[C@@H]1O[C@H](CO)[C@@H](O)[C@H](O)[C@H]1O = 401
